Value source: paper PMC6321058

Assay: MTT cytotoxicity assay, Hep-G2
Assay type: cell-based
Details: human, HepG2 cells (human hepatoma), cancer cell line Hep-G2, MTT, 0.19–100 μM
readout-label: IC50 at 72 h

input: Entry under review: C=C1C2CCC3(O)C4(C)CCCC(C)(C(=O)O)C4CCC3(C2)C1OC(=O)C(C)=CC (centres unmarked) . Reported IC50 at 72 h?
output: 24.7 µM

input: Similarly, C=C1C2CCC3C4(C)CCCC(C)(C(=O)O)C4CCC3(C2)C1OC(=O)C(C)=CC (centres unmarked) ?
output: > 100 µM

input: Similarly, CC(=O)O[C@H]1C(=O)[C@@]2(C)[C@H]([C@H](OC(=O)c3ccccc3)[C@]3(O)C[C@H](OC(=O)[C@H](O)[C@@H](NC(=O)c4ccccc4)c4ccccc4)C(C)=C1C3(C)C)[C@]1(OC(C)=O)CO[C@@H]1C[C@@H]2O [Paclitaxel, reference compound] ?
output: 0.19 µM

input: Similarly, CC=C(C)C(=O)OC1C23CCC4C(C)(C(=O)O)CCCC4(C)C2CCC(C3)C12CO2 (centres unmarked) ?
output: > 100 µM

input: Similarly, "CO[C@@]1(C)C[C@@]23CC[C@@H]4[C@](C)(C(=O)O)CCC[C@@]4(C)C2=CC[C@@H]1C3" ?
output: > 100 µM

input: Similarly, C=C1C2CCC3C4(C)CCCC(C)(C(=O)OC)C4CCC3(C2)C1OC(=O)C(C)=CC (centres unmarked) ?
output: > 100 µM

input: Similarly, C=C1CC23CCC4C(C)(C(=O)O)CCCC4(C)C2CCC1C3 (centres unmarked) ?
output: > 100 µM

input: Similarly, C=C1C2CCC3(O)C4(C)CCCC(C)(C(=O)OC)C4CCC3(C2)C1OC(=O)C(C)=CC (centres unmarked) ?
output: > 100 µM

input: Similarly, "C[C@@H]1C[C@@]23CC[C@@H]4[C@](C)(C(=O)O)CCC[C@@]4(C)C2=CC[C@@H]1C3" ?
output: > 100 µM

input: Similarly, C=C1CC23CCC4C(C)(C(=O)OC)CCCC4(C)C2CCC1C3 (stereo not drawn) [Compound 10, methyl-ent-kaur-16-en-19-oate] ?
output: > 100 µM

input: Similarly, "C=C1C[C@@]23CC[C@@H]4C(C)(C)CCC[C@@]4(C)C2=CC(=O)C1C3" ?
output: > 100 µM

###

Assay: MTT cytotoxicity assay, LO2
Type: cell-based
Settings: human, LO2 cells (immortalized normal human liver), normal cell line LO2, MTT, 0.19–100 μM
Method: Reagent and cells. Adenocarcinomic human alveolar basal epithelial (A549) and human hepatoma (HepG2) cancer cell lines, immortalized normal human liver (LO2), human bronchial epithelial (BEAS-2B), and fibroblast-like CCD19Lu cells were purchased from [NT], Manassas, VA, USA). […] The absorbance, A570 nm, was then determined in each well on the next day. The percentage cell viability was calculated using the expression: % Viability = Atreated/ Acontrol × 100, and was given as cytotoxicity in Table 3.
readout-label: IC50 at 72 h

input: Entry under review: "C[C@@H]1C[C@@]23CC[C@@H]4[C@](C)(C(=O)O)CCC[C@@]4(C)C2=CC[C@@H]1C3" . Reported IC50 at 72 h?
output: > 100 µM

input: Similarly, C=C1CC23CCC4C(C)(C(=O)OC)CCCC4(C)C2CCC1C3 (stereo not drawn) [Compound 10, methyl-ent-kaur-16-en-19-oate] ?
output: > 100 µM

input: Similarly, "C=C1C[C@@]23CC[C@@H]4C(C)(C)CCC[C@@]4(C)C2=CC(=O)C1C3" ?
output: 75.3 µM

input: Similarly, C=C1C2CCC3C4(C)CCCC(C)(C(=O)OC)C4CCC3(C2)C1OC(=O)C(C)=CC (stereo not shown) ?
output: > 100 µM
